target: FAP (Homo sapiens (Human), UniProt Q12884); assay: FAP plasma inhibition assay, human plasma; format: biochemical; conditions: human plasma diluted 1:40, Ala-Pro-AMC 75 μM
Sequence (Q12884 24-760): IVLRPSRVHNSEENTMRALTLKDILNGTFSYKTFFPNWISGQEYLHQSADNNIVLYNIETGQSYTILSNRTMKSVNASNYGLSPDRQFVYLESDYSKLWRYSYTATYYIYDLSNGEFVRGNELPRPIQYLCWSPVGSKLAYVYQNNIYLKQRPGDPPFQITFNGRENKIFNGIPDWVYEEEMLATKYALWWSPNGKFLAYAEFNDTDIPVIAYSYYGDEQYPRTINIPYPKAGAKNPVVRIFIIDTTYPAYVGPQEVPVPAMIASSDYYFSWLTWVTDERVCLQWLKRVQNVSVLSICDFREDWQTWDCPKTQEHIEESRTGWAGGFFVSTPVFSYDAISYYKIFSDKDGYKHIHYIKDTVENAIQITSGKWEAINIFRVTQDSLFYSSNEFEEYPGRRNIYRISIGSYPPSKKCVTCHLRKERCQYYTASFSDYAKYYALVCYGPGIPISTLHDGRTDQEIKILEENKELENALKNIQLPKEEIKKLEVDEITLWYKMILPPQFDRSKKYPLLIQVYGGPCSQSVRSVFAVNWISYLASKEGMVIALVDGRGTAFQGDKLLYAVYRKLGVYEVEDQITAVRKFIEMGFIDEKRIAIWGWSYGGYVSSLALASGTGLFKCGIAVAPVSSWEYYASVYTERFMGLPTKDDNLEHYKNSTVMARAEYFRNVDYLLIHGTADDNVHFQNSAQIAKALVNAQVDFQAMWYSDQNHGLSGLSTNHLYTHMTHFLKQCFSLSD
Reported Endpoint: IC50 (nM)
Give a bare numeral; the unit nM is implied.

[[record]]
molecule = "COc1ccc(-c2ccc3nccc(C(=O)NCC(=O)N4CSC[C@H]4C#N)c3c2)cn1"
target_or_system = "FAP (Homo sapiens (Human), UniProt Q12884)"
value_measured = 0.1

[[record]]
molecule = "CN1CCC(F)(c2ccc3nccc(C(=O)NCC(=O)N4CSC[C@H]4C#N)c3c2)CC1"
target_or_system = "FAP (Homo sapiens (Human), UniProt Q12884)"
value_measured = 0.9

[[record]]
molecule = "CC1(C)OCCN(c2ccc3nccc(C(=O)NCC(=O)N4CSC[C@H]4C#N)c3c2)C1=O"
target_or_system = "FAP (Homo sapiens (Human), UniProt Q12884)"
value_measured = 0.2

[[record]]
molecule = "C[C@H]1CCCN(c2ccc3nccc(C(=O)NCC(=O)N4CSC[C@H]4C#N)c3c2)C1=O (single isomer, unassigned)"
target_or_system = "FAP (Homo sapiens (Human), UniProt Q12884)"
value_measured = 0.4

[[record]]
molecule = "N#C[C@@H]1CSCN1C(=O)CNC(=O)c1ccnc2ccc(N3CC(F)(CF)C3)cc12"
target_or_system = "FAP (Homo sapiens (Human), UniProt Q12884)"
value_measured = 0.3

[[record]]
molecule = "CC(=O)N1CC2(C1)CN(c1ccc3nccc(C(=O)NCC(=O)N4CSC[C@H]4C#N)c3c1)C2"
target_or_system = "FAP (Homo sapiens (Human), UniProt Q12884)"
value_measured = 0.2


Please fill in: IC50 reported for N#C[C@@H]1CSCN1C(=O)CNC(=O)c1ccnc2ccc(N3CCO[C@H](C(F)(F)F)C3)cc12 = 0.2

For reference, reported IC50 for C[C@@H]1CCCN(c2ccc3nccc(C(=O)NCC(=O)N4CSC[C@H]4C#N)c3c2)C1=O (single isomer, unassigned) stands at 0.2

Measured IC50, N#C[C@@H]1CSCN1C(=O)CNC(=O)c1ccnc2ccc(N3C4CCC3COC4)cc12 : 0.2

====

assay: Metabolic stability in human liver microsomes (HLM); details: human, HLM CLint, n = 1 or average of n = 2-3
As shown below, each of these compounds has a reported microsomal CLint value.

Consider the reported microsomal CLint for these compounds:
[[record]]
compound = "N#C[C@@H]1CSCN1C(=O)CNC(=O)c1ccnc2ccc(N3CC(N4CCOCC4)C3)cc12 [Example 122]"
value_measured = "< 3 µL/min/mg"

[[record]]
compound = "N#C[C@@H]1CSCN1C(=O)CNC(=O)c1ccnc2ccc(N3CC(CF)C3)cc12 [Example 113]"
value_measured = "< 3 µL/min/mg"

[[record]]
compound = "CC1(CC(F)(F)F)CN(c2ccc3nccc(C(=O)NCC(=O)N4CSC[C@H]4C#N)c3c2)C1 [Example 131]"
value_measured = "97 µL/min/mg"

[[record]]
compound = "N#C[C@@H]1CSCN1C(=O)CNC(=O)c1ccnc2ccc(-n3ccc4cc(F)ccc43)cc12 [Example 120]"
value_measured = "100 µL/min/mg"


Per the record, COC1(C)CCN(c2ccc3nccc(C(=O)NCC(=O)N4CSC[C@H]4C#N)c3c2)CC1 [Example 42] has microsomal CLint of 21 µL/min/mg

The recorded microsomal CLint for COCC[C@@H]1COCCN1c1ccc2nccc(C(=O)NCC(=O)N3CSC[C@H]3C#N)c2c1 [Example 95] is 63 µL/min/mg

Recorded microsomal CLint (compound N#C[C@@H]1CSCN1C(=O)CNC(=O)c1ccnc2ccc(N3CC4C(C3)C4(F)F)cc12 (stereo partly shown) [Example 160] ): 45 µL/min/mg

Reported microsomal CLint of CC(C)C1CN(c2ccc3nccc(C(=O)NCC(=O)N4CSC[C@H]4C#N)c3c2)C1 [Example 148] : 53 µL/min/mg

The recorded microsomal CLint for entry Cc1cc2nccc(C(=O)NCC(=O)N3CSC[C@H]3C#N)c2cc1N1CCOCC1 [Example 10] equals 130 µL/min/mg

====

assay: Metabolic stability in rat hepatocytes (rHep); conditions: n = 1 or geometric mean of n = 2-3
Please note: rHep CLint exactly at 10 μL/min/1E6 is -1. Only values below 10 μL/min/1E6 get 1.

[[record]]
compound = "CC1(C)OCCN(c2ccc3nccc(C(=O)NCC(=O)N4CSC[C@H]4C#N)c3c2)C1=O [Example 16]"
group_label = 1

[[record]]
compound = "C[C@H]1CCN(c2ccc3nccc(C(=O)NCC(=O)N4CSC[C@H]4C#N)c3c2)C1 [Example 54]"
group_label = -1

[[record]]
compound = "N#C[C@@H]1CSCN1C(=O)CNC(=O)c1ccnc2ccc(N3CC4CCCC4C3)cc12 (stereo partly shown) [Example 53]"
group_label = -1

[[record]]
compound = "N#C[C@@H]1CSCN1C(=O)CNC(=O)c1ccnc2ccc(N3CCO[C@@H](C(F)(F)F)C3)cc12 [Example 73]"
group_label = -1

[[record]]
compound = "CC1(CF)CCN(c2ccc3nccc(C(=O)NCC(=O)N4CSC[C@H]4C#N)c3c2)CC1 [Example 37]"
group_label = -1

[[record]]
compound = "CC(=O)N1CC2(C1)CN(c1ccc3nccc(C(=O)NCC(=O)N4CSC[C@H]4C#N)c3c1)C2 [Example 184]"
group_label = 1

[[record]]
compound = "Cc1ccn(-c2ccc3nccc(C(=O)NCC(=O)N4CSC[C@H]4C#N)c3c2)c1 [Example 121]"
group_label = -1

[[record]]
compound = "N#C[C@@H]1CSCN1C(=O)CNC(=O)c1ccnc2ccc(-n3ccc4c3CCCC4)cc12 [Example 219]"
group_label = -1

[[record]]
compound = "N#C[C@@H]1CSCN1C(=O)CNC(=O)c1ccnc2ccc(N3CC(F)(C4CC4)C3)cc12 [Example 31]"
group_label = -1

[[record]]
compound = "N#C[C@@H]1CSCN1C(=O)CNC(=O)c1ccnc2ccc(N3CC(N4CCOCC4)C3)cc12 [Example 122]"
group_label = 1


*Q* Problem: For the compound N#C[C@@H]1CSCN1C(=O)CNC(=O)c1ccnc2ccc(N3CC(C(F)(F)F)C3)cc12 [Example 26] , is rHep CLint under 10 μL/min/1E6?
*A* 1

*Q* # check: rHep CLint < 10 μL/min/1E6 for N#C[C@@H]1CSCN1C(=O)CNC(=O)c1ccnc2ccc(N3C[C@@H]4CCC[C@@H]43)cc12 (mixture of isomers) [Example 156]
*A* -1

*Q* I wonder whether N#C[C@@H]1CSCN1C(=O)CNC(=O)c1ccnc2ccc(N3CCCCO3)cc12 [Example 1] has rHep CLint below 10 μL/min/1E6. Can you tell?
*A* 1

*Q* Does N#C[C@@H]1CSCN1C(=O)CNC(=O)c1ccnc2ccc(N3CCOCC3)c(Cl)c12 [Example 101] have rHep CLint strictly under 10 μL/min/1E6?
*A* 1

*Q* For N#C[C@@H]1CSCN1C(=O)CNC(=O)c1ccnc2ccc(N3CC4(COC4)C3)cc12 [Example 166] , is the recorded rHep CLint below the cut-off of 10 μL/min/1E6?
*A* 1

*Q* Please check: rHep CLint for Cn1nccc1-c1ccc2nccc(C(=O)NCC(=O)N3CSC[C@H]3C#N)c2c1 [Example 174] , strictly under 10 μL/min/1E6 or not?
*A* 1

====

assay: in vitro; settings: human, Caco-2
Reported Endpoint: Papp B→A

For this compound ( N#C[C@@H]1CSCN1C(=O)CNC(=O)c1ccnc2ccc(N3CC4CC(C3)O4)cc12 ), measured Papp B→A is 16 ×10⁻⁶ cm/s

====

assay: physchem; settings: kinetic from dmso stock
Reported Endpoint: solubility (µM)
Give a bare numeral; the unit µM is implied.

Solved entries:
[[record]]
mol = "N#C[C@@H]1CSCN1C(=O)CNC(=O)c1ccnc2ccc(N3C4CCCC3COC4)cc12"
value_measured = 640

[[record]]
mol = "N#C[C@@H]1CSCN1C(=O)CNC(=O)c1ccnc2ccc(N3C4CCC3CC4)cc12"
value_measured = 970


Record N#C[C@@H]1CSCN1C(=O)CNC(=O)c1ccnc2ccc(N3CC4CC(C3)O4)cc12 , field solubility: 850

====

biological target: hFAP (M39-A757) (Homo sapiens (Human), UniProt Q12884); assay: hFAP binding assay (surface plasmon resonance); conditions: SPR, 20° C., single cycle kinetics
Reported Endpoint: hFAP Binding assay k(off) (s⁻¹)
State the answer as a number, implicitly in s⁻¹.

[[record]]
compound = "CO[C@@H]1CN(c2ccc3nccc(C(=O)NCC(=O)N4CSC[C@H]4C#N)c3c2)[C@H]1C"
value_measured = 0.00022

[[record]]
compound = "CC(=O)NCC1(C)CN(c2ccc3nccc(C(=O)NCC(=O)N4CSC[C@H]4C#N)c3c2)C1"
value_measured = 0.000027

[[record]]
compound = "N#C[C@@H]1CSCN1C(=O)CNC(=O)c1ccnc2ccc(N3CCC[C@H]3C3CC3)cc12 (single isomer, unassigned)"
value_measured = 0.00023

[[record]]
compound = "N#C[C@@H]1CSCN1C(=O)CNC(=O)c1ccnc2ccc(N3C4CCC3COC4)cc12"
value_measured = 0.000015

[[record]]
compound = "CC1(CC(F)F)CN(c2ccc3nccc(C(=O)NCC(=O)N4CSC[C@H]4C#N)c3c2)C1"
value_measured = 0.000073

[[record]]
compound = "N#C[C@@H]1CSCN1C(=O)CNC(=O)c1ccnc2ccc(-c3ccn[nH]3)cc12"
value_measured = 0.00026


Turning now to a further compound:
hFAP Binding assay k(off) for CC1(C)CN(c2ccc3nccc(C(=O)NCC(=O)N4CSC[C@H]4C#N)c3c2)C(=O)O1 is 0.000076

Values were extracted from patent US20230312550A1.
